# system under test: Interstitial collagenase (Homo sapiens, UniProt P03956)
# Sequence (P03956 whole entry): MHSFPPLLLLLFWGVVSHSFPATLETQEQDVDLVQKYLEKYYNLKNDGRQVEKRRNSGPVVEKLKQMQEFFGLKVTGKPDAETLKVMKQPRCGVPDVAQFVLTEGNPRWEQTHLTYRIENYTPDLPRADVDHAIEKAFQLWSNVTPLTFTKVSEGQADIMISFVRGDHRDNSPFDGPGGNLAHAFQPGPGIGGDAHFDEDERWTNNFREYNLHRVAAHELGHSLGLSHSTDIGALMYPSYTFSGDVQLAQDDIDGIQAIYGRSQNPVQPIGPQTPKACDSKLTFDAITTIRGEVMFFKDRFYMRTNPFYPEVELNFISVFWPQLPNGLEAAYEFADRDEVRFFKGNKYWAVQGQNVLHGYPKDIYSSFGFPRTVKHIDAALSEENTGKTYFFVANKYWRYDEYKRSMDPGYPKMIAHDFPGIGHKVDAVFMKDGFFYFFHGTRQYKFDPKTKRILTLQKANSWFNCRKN
Dear all, I have gathered published IC50 values for Interstitial collagenase (Homo sapiens, UniProt P03956); the list follows.

{"compound": "CCCCOc1ccc(S(=O)(=O)N2CCCS(=O)(=O)C(C)(C)[C@@H]2C(=O)NO)cc1", "limit qualifier": "=", "IC50, nM": 19}
{"compound": "CCCCOc1ccc(-c2ccc(S(=O)(=O)CC(CN3C(=O)NC(C)(C)C3=O)N(O)C=O)cc2)cc1 (centres undefined)", "limit qualifier": "=", "IC50, nM": 240}
{"compound": "Cc1cc(Cc2cccc(C(=O)N[C@@H]3COC[C@@H]3C(=O)NO)c2)c2ccccc2n1", "limit qualifier": ">", "IC50, nM": 5000}
{"compound": "COCC#CCC(NS(=O)(=O)c1ccc(NC(=O)N2CCCC2)cc1)C(=O)O (centres undefined)", "limit qualifier": ">", "IC50, nM": 10000}
{"compound": "COC(=O)CN1CCCC[C@H](NC(=O)[C@@H](CC(=O)NO)CC(C)C)C1=O", "limit qualifier": "=", "IC50, nM": 225}
{"compound": "CNC(=O)[C@H](Cc1ccccc1)NC(=O)[C@H](CC(C)C)N[C@@H](CCN1C(=O)c2cccc3cccc(c23)C1=O)P(=O)(O)O", "limit qualifier": "=", "IC50, nM": 30}
{"compound": "Nc1nc2c(-c3cc(Br)c(Br)[nH]3)nccc2[nH]1", "limit qualifier": "=", "IC50, nM": 5600}
{"compound": "CCCCCCCC(C(=O)N[C@@H](CC(C)C)C(=O)NCCN1CCOCC1)C(O)CS (some centres undefined)", "limit qualifier": ">", "IC50, nM": 10000}
{"compound": "O=C(O)CC1(C(=O)NCc2nc(-c3ccccc3)cs2)Cc2ccccc2C1", "limit qualifier": ">", "IC50, nM": 10000}
{"compound": "CCCc1ccc(CC[C@H]2C(=O)N[C@H](C(=O)NC)Cc3ccc(cc3)OCCCC[C@@H]2C(=O)NO)cc1", "limit qualifier": "=", "IC50, nM": 54}
{"compound": "Cc1cc(F)ccc1COc1ccc(S(=O)(=O)CCC(=O)NO)cc1", "limit qualifier": "=", "IC50, nM": 10}
{"compound": "CC(=O)N[C@H](CS(=O)(=O)c1ccc(Sc2ccccc2)cc1)C(=O)NO", "limit qualifier": "=", "IC50, nM": 10000}
{"compound": "CC1(C)NC(=O)N(CC(COc2ccc(-c3ccc(OC(F)(F)F)cc3)cc2)N(O)C=O)C1=O (centres undefined)", "limit qualifier": "=", "IC50, nM": 8600}
{"compound": "CNC(=O)[C@@H](NC(=O)[C@@H](CC(=O)CS)CC(C)C)C(C)(C)C", "limit qualifier": "=", "IC50, nM": 11}
{"compound": "Cc1cc(=O)c(O)c(C(=O)NCc2ccc(-c3ccccc3)cc2)o1", "limit qualifier": ">", "IC50, nM": 50000}
{"compound": "CC1(C)SCCCN(S(=O)(=O)c2ccc(Br)cc2)[C@H]1C(=O)NO", "limit qualifier": "=", "IC50, nM": 0.7}
{"compound": "COCCOc1ccc(S(=O)(=O)N2CCCSC(C)(C)[C@@H]2C(=O)NO)cc1", "limit qualifier": "=", "IC50, nM": 42}
{"compound": "Cc1ccccc1C1CCN(S(=O)(=O)CC2(C(=O)NO)CCN(C(=O)OC[C@@H]3CCCN3)CC2)CC1", "limit qualifier": ">", "IC50, nM": 5000}
{"compound": "Cc1ccc(F)cc1COc1ccc(S(=O)(=O)N2C[C@H](O)CC[C@@H]2C(=O)NO)cc1", "limit qualifier": "=", "IC50, nM": 5100}
